Measured Inhibition of individual entries
# Test system: Plasmodium falciparum
# Protocol notes: GSK_TCMDC: Inhibition of Plasmodium falciparum Dd2 in whole red blood cells, using parasite LDH activity as an index of growth. Test compounds present at 2uM
# Format: functional
Recorded metric: Inhibition (%)

>  <Compound>
CCOC(=O)C1=C(C)NC2=C(C(=O)C(C(=O)OC)C(C)C2)C1c1cc(Br)c(OCC)c(OC)c1 (centres undefined)

>  <Quantitative readout>
99

$$$$
>  <Compound>
Cl.O=C(Nc1ccnc2ccccc12)NC1CCN(Cc2ccccc2)CC1

>  <Quantitative readout>
43

$$$$
>  <Compound>
CCCCN1CCN(CCCCNc2c3ccccc3nc3ccccc23)CC1.Cl

>  <Quantitative readout>
5

$$$$
>  <Compound>
CCCCCCOc1ccc(/C(N)=N\Cc2ccccc2)c2c1CCCC2.Cl

>  <Quantitative readout>
35

$$$$
>  <Compound>
Cc1cccc2nc(-c3ccc(-c4cccc(CNCc5cccc(N)c5)c4)s3)[nH]c12.O=C(O)C(F)(F)F

>  <Quantitative readout>
85

$$$$
>  <Compound>
O=C(/C=C/c1ccc(C(F)(F)F)cc1)N1CCc2cc3nccc(N4CCN5CCC[C@H]5C4)c3cc21

>  <Quantitative readout>
21

$$$$
>  <Compound>
O=C(NCC1CCC(C(=O)NCCc2ccc(Cl)c(Cl)c2)CC1)c1ccc(O)c(-c2ccc(Cl)c(Cl)c2)c1 (centres undefined)

>  <Quantitative readout>
12

$$$$
>  <Compound>
O=C(/C=C/c1ccc(Cl)c(Cl)c1)N1CCC(CN2CCC(Cc3c[nH]c4ccccc34)CC2)CC1

>  <Quantitative readout>
13

$$$$
>  <Compound>
O=c1cc(NCCCNCc2cc(Cl)cc(Cl)c2OCc2ccc(Cl)cc2)[nH]c2ccccc12

>  <Quantitative readout>
53

$$$$

FYI, the data here is from ChEMBL document CHEMBL1157539.
